B1: TRIM9 (parent)
chain: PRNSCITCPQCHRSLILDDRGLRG

- Variants of: B1
- assay_details: protein stability index of a GFP-peptide fusion (GPS, HEK-293T) (PSI 1-6); higher = more stable;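 further: lentivirally expressed fusions sorted by FACS into six bins by GFP to DsRed ratio, PSI derived from sequencing read proportions per bin multiplied by bin number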
- condition_set: c terminus: a fixed tail appended
// false (0) strictly below 2 in protein stability index; true (1) otherwise

construct_sequence: PRNSCITCPQCHRSLILDARGLRG [D19A]
assigned_label: true (1)

construct_sequence: PRNSCITCPQCKRSLILDDRGLRG [H12K]
assigned_label: true (1)

construct_sequence: PRNSCITCPQCHRSLILFDRGLRG [D18F]
assigned_label: false (0)

construct_sequence: PRNSCITCPQIHRSLILDDRGLRG [C11I]
assigned_label: true (1)

construct_sequence: PANSCITCPQCHRSLILDDRGLRG [R2A]
assigned_label: false (0)

construct_sequence: PRMSCITCPQCHRSLILDDRGLRG [N3M]
assigned_label: false (0)

construct_sequence: CRNSCITCPQCHRSLILDDRGLRG [P1C]
assigned_label: true (1)

construct_sequence: PRNSCITCPQCHRSLILDDHGLRG [R20H]
assigned_label: false (0)

construct_sequence: PRNSCITCPRCHRSLILDDRGLRG [Q10R]
assigned_label: true (1)

construct_sequence: PRNSCITVPQCHRSLILDDRGLRG [C8V]
assigned_label: true (1)

construct_sequence: PRNSCITCPQCHRSLICDDRGLRG [L17C]
assigned_label: true (1)

construct_sequence: PRNSCITCPQCHRSLILTDRGLRG [D18T]
assigned_label: true (1)

construct_sequence: PRNSCITEPQCHRSLILDDRGLRG [C8E]
assigned_label: true (1)

construct_sequence: PRNSCITCPQPHRSLILDDRGLRG [C11P]
assigned_label: true (1)

construct_sequence: PRNSCIKCPQCHRSLILDDRGLRG [T7K]
assigned_label: true (1)

construct_sequence: PRNSCITCPQCHRSLILDDRLLRG [G21L]
assigned_label: true (1)

construct_sequence: PRNSSITCPQCHRSLILDDRGLRG [C5S]
assigned_label: true (1)

construct_sequence: PRNSCITCPQCHCSLILDDRGLRG [R13C]
assigned_label: true (1)

Reference source for all entries: the supplement of paper PMC10567573
